Quick reference: protein stability index of the listed items.
- test_name: protein stability index of a GFP-peptide fusion (GPS, HEK-293T) (PSI 1-6); higher = more stable;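 further: 24-mer peptide tiles fused after GFP, lentivirally expressed, FACS-sorted into six equal bins by GFP/DsRed ratio, decoded by Illumina sequencing, PSI is the read-weighted mean bin number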
- particulars: treatment: DMSO; c terminus: a fixed tail appended

Observe how each entry below is paired with its result.
NEYLLNLVATNAHLDHYYQEELPA [FCHSD1]; 3.25
GEAMLANFKPRGYSECIVTVGGEE [GAN]; 4.38
NVCSLLAQTPLHVAAETGHTSTAR [RIPK4]; 3.67

We next turn to a different sequence, shown below.
Value of protein stability index reported for the sequence EDEKLCDPNTRPVGEKNCTGPPCD [ADAMTSL2] is 5.47

###

- test_name: protein stability index of a GFP-peptide fusion (GPS, HEK-293T) (PSI 1-6); higher = more stable
- particulars: treatment: DMSO; c terminus: a fixed tail appended
assay_readout: protein stability index
Reply with the value as a number alone.

ILALELICSLICLLIYTVKIRRFN [TMEM192]; 3.42

Consider LDLMKEWIAHSEKLPRKVLQHVSE [SPACA9] . Its measured protein stability index is 3

Short answer for SYYDPGRLICDFPFDGLLEERALL [VPS39] : protein stability index was 2.4

In plain terms, IYEFWENSSVWNSHLQTNYSKTFQ [NECAB1] has a documented protein stability index of 2.28

Measured protein stability index of KPWDFPSVHNDLWESWFVPDPAGI [GLT8D2] : 2.96

###

- test_name: protein stability index of a GFP-peptide fusion (GPS, HEK-293T) (PSI 1-6); higher = more stable
- particulars: treatment: MLN4924 1 uM, 8 h; c terminus: a fixed tail appended
assay_readout: protein stability index
# print the numeric value only

These recorded examples may help you get a feel for the data.
NPVQPIGPQTPKACDSKLTFDAIT [MMP1]; 4.23
TKILQERAVLGANDPEKNFLTTAI [NSDHL]; 3.38
VLMIAIQLISRMEYVHSKNLIYRD [CSNK1G3]; 2.72
GATVRSFSINSRLASSLGNLNAAT [CDC14A]; 2.92
FSIPPWRYDAEVVAIAQKFAALRA [MYORG]; 2.22

Just so you know, measured protein stability index for MRKTSNSCIMENGHQPGTGPGDGP [SMTNL2] came out at 4.55

protein stability index recorded for this sequence, MSKQRERQLRRRALHPERAMDNHS [RETREG3] , is 4.44

Record LCKVLGVLFSVAGGLFVGKEGPMI [CLCN6] . Reported protein stability index: 2.89

DETLYQEFNGLKKMNPKLKTLLAI [CHIT1] yielded protein stability index of 2.52

For record EANSAKVQEDLEAEFQSLFSLLEE [FSD1] the listed protein stability index is 5.05

###

- test_name: protein stability index of a GFP-peptide fusion (GPS, HEK-293T) (PSI 1-6); higher = more stable
- particulars: treatment: DMSO; c terminus: a fixed tail appended
Label false if protein stability index falls below 3; label true in every other case.

As a guide, the following entries are already answered.
SPPKSPRTTVHDKSAHQTHSSWTP [DNAJC4]; true
WRYVSSLPQPLAAHAGAVHNGKIY [KLHL14]; false
MGCLGVAKEDGKADTKKRHTPRGH [SMOC2]; true
LGYQAVPSGSSGSLSTSSSSSPPG [CEBPB]; true

Query sequence follows.
query: # check: protein stability index of GSTLGGSSYSSCYSFGSGGGYGSS [KRT17] is greater than or equal to 3
result: false

All values here come from the supplement of paper PMC10567573.
